Parameter: t½. Scope: all listed entries.
system-tested: T1, recombinant human IL-36R extracellular domain expressed with a C-terminal myc-myc-hexahistidine tag (human, UniProt Q9HB29 20-337)
T1 construct: also called hIL-36R-MMH; hIL-36R.mmH
T1 sequence (Q9HB29 other isoform, or with tags, fused parts or gaps limits assumed): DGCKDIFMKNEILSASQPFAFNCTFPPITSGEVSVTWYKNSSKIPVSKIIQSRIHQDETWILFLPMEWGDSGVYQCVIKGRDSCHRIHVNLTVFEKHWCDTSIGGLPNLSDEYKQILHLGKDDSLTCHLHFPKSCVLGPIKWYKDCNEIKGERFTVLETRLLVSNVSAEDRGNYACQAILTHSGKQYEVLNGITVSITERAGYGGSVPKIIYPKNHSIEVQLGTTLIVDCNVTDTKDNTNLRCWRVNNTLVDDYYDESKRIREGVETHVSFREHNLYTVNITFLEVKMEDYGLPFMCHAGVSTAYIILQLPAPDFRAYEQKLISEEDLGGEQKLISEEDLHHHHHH
assay-overview: SPR (Biacore 4000), mAb captured on anti-human Fc, 25°C
Respond with the bare value in min.

Worked set:
Item: H4H14709P (antibody, human IgG4 S228P, kappa, V domains shown) VH: EVQLVESGGGLVQPGGSLRLSCAASGFTFSDYAMSWVRQAPGKGLEWVSGISGNGGDTYYGDFVKGRFTISRDNSKNTLYLQMNSLRGEDTAAYFCVIDLDYWGQGTLVTVSS VL: DIQMTQSPSTLSASEGDRVTITCRASQSISSWLAWYQQKPGKAPRLLIYKASILGDGVPSRFSGSGSGTEFTLTISSLQPDDFATYYCHQYNSYLWTFGQGTKVEIKR | t½: 39

Item: H4H14757P (antibody, human IgG4 S228P, kappa, V domains shown) VH: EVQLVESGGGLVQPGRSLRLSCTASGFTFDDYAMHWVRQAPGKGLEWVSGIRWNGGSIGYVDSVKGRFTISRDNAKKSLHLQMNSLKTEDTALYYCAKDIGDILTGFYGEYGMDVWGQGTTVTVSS VL: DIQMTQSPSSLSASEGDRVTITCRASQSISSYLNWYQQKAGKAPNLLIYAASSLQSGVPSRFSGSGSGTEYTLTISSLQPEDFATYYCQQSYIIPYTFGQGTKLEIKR | t½: 29

Item: H4H14706P2 (antibody, human IgG4 S228P, kappa, V domains shown) VH: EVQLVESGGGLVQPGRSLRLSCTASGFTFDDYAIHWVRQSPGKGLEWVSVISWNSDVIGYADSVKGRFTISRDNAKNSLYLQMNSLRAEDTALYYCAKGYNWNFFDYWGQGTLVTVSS VL: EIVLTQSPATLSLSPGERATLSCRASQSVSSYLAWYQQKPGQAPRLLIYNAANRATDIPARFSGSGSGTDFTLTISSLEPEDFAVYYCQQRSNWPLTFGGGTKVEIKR | t½: 23

Continuing:
Item: H4H14708P2 (antibody, human IgG4 S228P, kappa, V domains shown) VH: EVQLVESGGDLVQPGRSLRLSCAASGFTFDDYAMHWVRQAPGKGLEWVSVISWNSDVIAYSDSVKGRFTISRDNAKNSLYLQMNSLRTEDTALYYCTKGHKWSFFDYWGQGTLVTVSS VL: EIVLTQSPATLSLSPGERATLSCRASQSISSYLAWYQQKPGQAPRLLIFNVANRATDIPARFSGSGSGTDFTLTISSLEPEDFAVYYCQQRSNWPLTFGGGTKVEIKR | t½: 19

Item: H4H14728P (antibody, human IgG4 S228P, kappa, V domains shown) VH: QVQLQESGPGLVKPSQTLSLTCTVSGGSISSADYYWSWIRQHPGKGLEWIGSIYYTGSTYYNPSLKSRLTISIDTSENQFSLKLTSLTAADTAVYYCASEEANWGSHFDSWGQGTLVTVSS VL: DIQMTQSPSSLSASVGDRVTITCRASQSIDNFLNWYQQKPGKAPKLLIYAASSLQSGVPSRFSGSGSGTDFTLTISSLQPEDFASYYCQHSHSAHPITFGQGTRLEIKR | t½: 15

Item: H4H14699P2 (antibody, human IgG4 S228P, kappa, V domains shown, Fully human anti-IL-36R antibody) VH: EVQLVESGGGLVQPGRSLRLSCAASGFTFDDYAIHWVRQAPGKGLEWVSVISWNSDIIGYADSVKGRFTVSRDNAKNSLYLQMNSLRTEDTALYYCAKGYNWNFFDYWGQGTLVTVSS VL: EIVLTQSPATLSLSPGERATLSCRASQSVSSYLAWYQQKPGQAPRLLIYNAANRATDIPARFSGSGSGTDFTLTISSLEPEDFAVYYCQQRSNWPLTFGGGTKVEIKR | t½: 7
